Tested Target: Human immunodeficiency virus type 1 protease (Human immunodeficiency virus 1) (UniProt Q72874)
Procedure Summary: Antiviral activity against mutant virus HIV-1 mutant (84V/82F) strain
Format: functional
Quantity: IC90 mutant/IC90 WT

Smi | Quantity | Value Measured
Nc1ccc(CN2C(=O)N(Cc3ccc4[nH]ncc4c3)[C@H](Cc3ccccc3)[C@H](O)[C@@H](O)[C@H]2Cc2ccccc2)cc1-c1cc[nH]n1 | IC90 mutant/IC90 WT | 20
O=C(Nc1nccs1)c1cccc(CN2C(=O)N(Cc3ccc4[nH]ncc4c3)[C@H](Cc3ccccc3)[C@H](O)[C@@H](O)[C@H]2Cc2ccccc2)c1 | IC90 mutant/IC90 WT | 22
Nc1ccc(CN2C(=O)N(Cc3ccc4[nH]ncc4c3)[C@H](Cc3ccccc3)[C@H](O)[C@@H](O)[C@H]2Cc2ccccc2)cc1-n1cccn1 | IC90 mutant/IC90 WT | 50
O=C1N(Cc2cccc(NCc3nc4ccccc4[nH]3)c2)[C@H](Cc2ccccc2)[C@H](O)[C@@H](O)[C@@H](Cc2ccccc2)N1Cc1ccc2[nH]ncc2c1 | IC90 mutant/IC90 WT | 3
Nc1cccc(CN2C(=O)N(Cc3cccc(N)c3)[C@H](Cc3ccccc3)[C@H](O)[C@@H](O)[C@H]2Cc2ccccc2)c1 | IC90 mutant/IC90 WT | 100
O=C1N(Cc2cccc(-c3nc[nH]n3)c2)[C@H](Cc2ccccc2)[C@H](O)[C@@H](O)[C@@H](Cc2ccccc2)N1Cc1ccc2[nH]ncc2c1 | IC90 mutant/IC90 WT | 18
O=C(Nc1ncc[nH]1)c1cccc(CN2C(=O)N(Cc3cccc(C(=O)Nc4ncc[nH]4)c3)[C@H](Cc3ccccc3)[C@H](O)[C@@H](O)[C@H]2Cc2ccccc2)c1 | IC90 mutant/IC90 WT | 0.7
N=C(NO)c1cccc(CN2C(=O)N(Cc3cccc(/C(N)=N/O)c3)[C@H](Cc3ccccc3)[C@H](O)[C@@H](O)[C@H]2Cc2ccccc2)c1 | IC90 mutant/IC90 WT | 0.7
Nc1ccc(CN2C(=O)N(Cc3ccc4[nH]ncc4c3)[C@H](Cc3ccccc3)[C@H](O)[C@@H](O)[C@H]2Cc2ccccc2)cc1-n1cncn1 | IC90 mutant/IC90 WT | 20
O=C(Cc1ccccn1)c1cccc(CN2C(=O)N(Cc3ccc4[nH]ncc4c3)[C@H](Cc3ccccc3)[C@H](O)[C@@H](O)[C@H]2Cc2ccccc2)c1 | IC90 mutant/IC90 WT | 5
O=C1N(Cc2cccc(NCc3nc4ccccc4s3)c2)[C@H](Cc2ccccc2)[C@H](O)[C@@H](O)[C@@H](Cc2ccccc2)N1Cc1ccc2[nH]ncc2c1 | IC90 mutant/IC90 WT | 20
O=C1N(Cc2ccc(CO)cc2)[C@H](Cc2ccccc2)[C@H](O)[C@@H](O)[C@@H](Cc2ccccc2)N1Cc1ccc(CO)cc1 | IC90 mutant/IC90 WT | 97
Nc1cccc(CN2C(=O)N(Cc3ccc4[nH]ncc4c3)[C@H](Cc3ccccc3)[C@H](O)[C@@H](O)[C@H]2Cc2ccccc2)c1 | IC90 mutant/IC90 WT | 200
Nc1ccc(CN2C(=O)N(Cc3ccc4[nH]ncc4c3)[C@H](Cc3ccccc3)[C@H](O)[C@@H](O)[C@H]2Cc2ccccc2)cc1 | IC90 mutant/IC90 WT | 240

---

# maps each entry to its IC90 mutant/IC90 WT
Tested Target: Human immunodeficiency virus type 1 protease (Human immunodeficiency virus 1)
Procedure Summary: Antiviral activity against mutant virus HIV-1 mutant (84V) strain
Assay type: functional

Smi | IC90 mutant/IC90 WT
O=C1N(Cc2ccc(CO)cc2)[C@H](Cc2ccccc2)[C@H](O)[C@@H](O)[C@@H](Cc2ccccc2)N1Cc1ccc(CO)cc1 | 28
Nc1ccc(CN2C(=O)N(Cc3ccc4[nH]ncc4c3)[C@H](Cc3ccccc3)[C@H](O)[C@@H](O)[C@H]2Cc2ccccc2)cc1-c1cc[nH]n1 | 2.2
O=C(Nc1nccs1)c1cccc(CN2C(=O)N(Cc3ccc4[nH]ncc4c3)[C@H](Cc3ccccc3)[C@H](O)[C@@H](O)[C@H]2Cc2ccccc2)c1 | 2
Nc1ccc(CN2C(=O)N(Cc3ccc4[nH]ncc4c3)[C@H](Cc3ccccc3)[C@H](O)[C@@H](O)[C@H]2Cc2ccccc2)cc1 | 31
O=C1N(Cc2cccc(NCc3nc4ccccc4s3)c2)[C@H](Cc2ccccc2)[C@H](O)[C@@H](O)[C@@H](Cc2ccccc2)N1Cc1ccc2[nH]ncc2c1 | 3.3
N=C(NO)c1cccc(CN2C(=O)N(Cc3cccc(/C(N)=N/O)c3)[C@H](Cc3ccccc3)[C@H](O)[C@@H](O)[C@H]2Cc2ccccc2)c1 | 1
